- Assay summary: Plasma concentration in BALB/c mouse at 50 mg/kg, ip after 3 hrs
- Format: ADME, organism-based
- Design: dose 50 mg/kg, route intraperitoneal
Readout type: concentration at 3 h (µM)

Chemical structure: CCOC(=O)[C@]1(c2ccccc2)N=C(c2ccccc2)N(Cc2ccccc2)[C@@H]1c1ccccc1
Unit abbrev: µM
Measured result: 6

====

- Assay summary: Plasma concentration in BALB/c mouse at 400 mg/kg, po after 3 hrs
- Assay type: ADME, organism-based
- Set-up: dose 400 mg/kg, route oral
Readout type: concentration at 3 h (µM)

Chemical structure: CCOC(=O)[C@]1(c2ccccc2)N=C(c2ccccc2)N(Cc2ccccc2)[C@@H]1c1ccccc1
Measured result: 9
